- Tested on: human neutrophils
- Test method notes: inhibition of neutrophil locomotion (intrinsic and chemotactic), in vitro agarose test by the method of Nelson et al.
- Format: cell-based
- Assay context: 10^-4 molar, 2 hours at 37° C., duplicate, four donors, read-out: % Inhibition of Locomotion, Chemotactic
Counter-ions that a name gives are not always drawn.
compounds and their reported inhibition at 100 µM
A number alone suffices; assume %.

# Compound, inhibition at 100 µM [%]
rows = [
    ("COc1ccccc1CNCCSSCCNCc1ccccc1OC.Cl.Cl [Example 1, dihydrochloride]", 100),
    ("Oc1ccccc1CNCCSSCCNCc1ccccc1O [Example 2, bis(2-hydroxybenzylaminoethyl)disulfide]", 100),
]

Query :: Any idea what inhibition at 100 µM was measured for Cc1cc(C(C)(C)C)cc(CNCCSSCCNCc2cc(C(C)(C)C)cc(C)c2O)c1O [Example 4, dihydrochloride] ?
Result :: 100

Query :: Item: Clc1cccc(Cl)c1CNCCSSCCNCc1c(Cl)cccc1Cl [Example 6, hydrochloride]
Result :: 85

Query :: And CC(C)(C)c1cc(Cl)c(O)c(CNCCSSCCNCc2cc(C(C)(C)C)cc(Cl)c2O)c1 [Example 5] ?
Result :: 100
